A collection of variants and their measured protein stability index
B1: C1orf137 (parent)
chain: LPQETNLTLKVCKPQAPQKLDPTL

# Variants of: B1
# EXPERIMENT: protein stability index of a GFP-peptide fusion (GPS, HEK-293T) (PSI 1-6); higher = more stable;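 also: lentivirally expressed fusions sorted by FACS into six bins by GFP to DsRed ratio, PSI derived from sequencing read proportions per bin multiplied by bin number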
# RECORDED CONDITIONS: c terminus: a fixed tail appended
When you answer, write just the number.

P17W: 2.3
P14L: 2.81
L24F: 4.32
D21K: 3.77
Q18C: 3.79
T23A: 3.47
Q3N: 3.53
A16S: 4.02
N6I: 2.42
T8F: 2.9

Input K10W . Output protein stability index: 2.17

Input C12E . Output protein stability index: 4.39

Input K10M . Output protein stability index: 2.95

Input E4R . Output protein stability index: 2.64

Input L1R . Output protein stability index: 3.48
